This listing pairs compounds with measured pIC50.
# Test system: human C-Myc gene transcription in MV-4-11 cells
# METHOD_NOTES: Transcription of human C-Myc in human leukemic MV-4-11 cells (QuantiGene 2.0)
# Type: cell-based
# CONDITION_LABEL: inhibition of C-Myc mRNA transcription, 4 hours treatment
pIC50: −log10 of the molar value.
MEASURED_ENDPOINT: pIC50

{"COMPOUND": "COc1cc2c(cc1-c1cc(C)c(=O)n(C)c1)CCC(=O)N2C(C)c1ccccn1 (centres unmarked) [Compound 4]", "READING": 6.08}
{"COMPOUND": "COc1cc2c(cc1-c1cc(C)c(=O)n(C)c1)CCC(=O)N2C(C)c1ccccc1 (centres unmarked) [Compound 2]", "READING": 6.08}
{"COMPOUND": "Cc1cc(-c2ccc3c(c2)N(C(C)c2ccccc2)C(=O)CC3)cn(C)c1=O (single isomer, unassigned) [Compound 13]", "READING": 6.80}
{"COMPOUND": "Cc1cc(-c2ccc3c(c2)N(CC2CCCCO2)C(=O)CC3)cn(C)c1=O (single isomer, unassigned) [Compound 15]", "READING": 6.22}
{"COMPOUND": "Cc1cc(-c2ccc3c(c2)N(C(C)c2ccccc2)C(=O)CC3)cn(C)c1=O (single isomer, unassigned) [Compound 12]", "READING": 6.05}

###

# SYSTEM_NAME: BRD4(BD1) (Homo sapiens (Human))
# METHOD_NOTES: In vitro bromodomain inhibition assay (AlphaLISA, H4-tetraacetyl peptide)
# CONDITION_LABEL: His-tagged BRD4 BD1 200 nM, biotinylated H4-tetraacetyl peptide 200 nM
pIC50: −log10 of the molar value.
MEASURED_ENDPOINT: pIC50

{"COMPOUND": "COc1cc(-c2cc(C)c(=O)n(C)c2)cc2c1N(Cc1ccccc1)C(=O)CC2 [Compound 6]", "READING": 5.59}
{"COMPOUND": "Cc1cc(-c2ccc3c(c2)N(CCOC(F)(F)F)C(=O)CC3)cn(C)c1=O [Compound 8]", "READING": 6.03}
{"COMPOUND": "Cc1cc(-c2ccc3c(c2)N(Cc2ccccc2)C(=O)CC3)cn(C)c1=O [Compound 7]", "READING": 6.13}
{"COMPOUND": "Cc1cc(-c2ccc3c(c2)N(CC2CCCCO2)C(=O)CC3)cn(C)c1=O (single isomer, unassigned) [Compound 14]", "READING": 5.44}

###

# SYSTEM_NAME: BRD4(BD1) (Homo sapiens (Human), UniProt O60885)
# METHOD_NOTES: In vitro bromodomain inhibition assay (AlphaLISA, H4-tetraacetyl peptide)
# CONDITION_LABEL: His-tagged BRD4 BD1 200 nM, biotinylated H4-tetraacetyl peptide 200 nM
pIC50: −log10 of the molar value.
MEASURED_ENDPOINT: pIC50

{"MOLECULE": "Cc1cc(-c2ccc3c(c2)N(Cc2ccccn2)C(=O)CC3)cn(C)c1=O", "SYSTEM_NAME": "BRD4(BD1) (Homo sapiens (Human), UniProt O60885)", "READING": 6.38}
{"MOLECULE": "Cc1cc(-c2ccc3c(c2)OCC(=O)N3Cc2ccccc2)cn(C)c1=O", "SYSTEM_NAME": "BRD4(BD1) (Homo sapiens (Human), UniProt O60885)", "READING": 5.80}
{"MOLECULE": "Cc1cc(-c2ccc3c(c2)N(CCOC(F)(F)F)C(=O)CO3)cn(C)c1=O", "SYSTEM_NAME": "BRD4(BD1) (Homo sapiens (Human), UniProt O60885)", "READING": 6.06}
{"MOLECULE": "Cc1cc(-c2ccc3c(c2)N(CC2CC(F)(F)C2)C(=O)CC3)cn(C)c1=O", "SYSTEM_NAME": "BRD4(BD1) (Homo sapiens (Human), UniProt O60885)", "READING": 6.07}
{"MOLECULE": "Cc1cc(-c2ccc3c(c2)N(CC2CC(F)(F)C2)C(=O)CO3)cn(C)c1=O", "SYSTEM_NAME": "BRD4(BD1) (Homo sapiens (Human), UniProt O60885)", "READING": 6.09}
{"MOLECULE": "Cc1cc(-c2ccc3c(c2)N(CC2CCCCO2)C(=O)CC3)cn(C)c1=O (single isomer, unassigned) [Compound 15]", "SYSTEM_NAME": "BRD4(BD1) (Homo sapiens (Human), UniProt O60885)", "READING": 5.82}
{"MOLECULE": "Cc1cc(-c2ccc3c(c2)N(Cc2ccccc2)C(=O)CO3)cn(C)c1=O", "SYSTEM_NAME": "BRD4(BD1) (Homo sapiens (Human), UniProt O60885)", "READING": 6.34}
{"MOLECULE": "Cc1cc(-c2ccc3c(c2)N(Cc2ccccn2)C(=O)CO3)cn(C)c1=O", "SYSTEM_NAME": "BRD4(BD1) (Homo sapiens (Human), UniProt O60885)", "READING": 6.24}
